Listing of recorded concentration in single-turnover reaction by entry.
# ASSAYED_SYSTEM: human P450 51A1 (Homo sapiens, UniProt Q16850)
# Sequence (Q16850 whole entry): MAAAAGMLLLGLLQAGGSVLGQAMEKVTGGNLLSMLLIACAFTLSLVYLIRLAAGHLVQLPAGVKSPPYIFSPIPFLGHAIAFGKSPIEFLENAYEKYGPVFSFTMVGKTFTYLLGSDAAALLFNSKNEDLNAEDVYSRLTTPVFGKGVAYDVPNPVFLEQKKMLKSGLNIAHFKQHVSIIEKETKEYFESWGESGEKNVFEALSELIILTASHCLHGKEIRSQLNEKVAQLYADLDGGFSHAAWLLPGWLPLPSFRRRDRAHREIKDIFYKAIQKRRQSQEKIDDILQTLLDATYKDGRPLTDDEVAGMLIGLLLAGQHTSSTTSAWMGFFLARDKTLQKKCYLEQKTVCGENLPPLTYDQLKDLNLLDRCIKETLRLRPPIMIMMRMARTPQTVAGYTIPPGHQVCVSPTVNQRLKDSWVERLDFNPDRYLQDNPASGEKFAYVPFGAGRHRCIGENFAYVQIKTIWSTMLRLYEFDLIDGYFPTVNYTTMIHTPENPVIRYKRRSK
# PROTOCOL_SUMMARY: Single-turnover rapid-quench kinetics of [3-3H]-dihydrolanosterol oxidation (radio-HPLC)
# Format: biochemical
# Set-up: made in house; host or cells: Escherichia coli
# ASSAY_SETUP: time 0.1 s

Solved entries (count: 2):
* CC(C)CCC[C@@H](C)[C@H]1CC=C2C3=C(CC[C@@]21C)[C@@]1(C)CC[C@H](O)C(C)(C)[C@@H]1CC3 [dihydro FF-MAS, 24,25-dihydro FF-MAS] | 0 µM
* CC(C)CCCC(C)[C@H]1CC[C@@]2(CO)C3=C(CC[C@]12C)[C@@]1(C)CC[C@H](O)C(C)(C)C1CC3 (stereo partly drawn) [14α-CH2OH dihydrolanosterol, 24,25-dihydro-14α-CH2OH lanosterol] | 3.1584 µM

Lab book: concentration in single-turnover reaction of CC(C)CCCC(C)[C@H]1CC[C@@]2(C=O)C3=C(CC[C@]12C)[C@@]1(C)CC[C@H](O)C(C)(C)C1CC3 (stereo partly drawn) [14α-CHO dihydrolanosterol, 24,25-dihydro-14α-formyl lanosterol] noted as 0.8505 µM

Lab book: concentration in single-turnover reaction of CC(C)CCCC(C)[C@H]1CC[C@@]2(C)C3=C(CC[C@]12C)[C@@]1(C)CC[C@H](O)C(C)(C)C1CC3 (stereo partly shown) [dihydrolanosterol, 24,25-dihydrolanosterol] noted as 2.9911 µM
